Biological target: Androgen receptor (Homo sapiens, UniProt P10275)
Sequence (P10275 whole entry): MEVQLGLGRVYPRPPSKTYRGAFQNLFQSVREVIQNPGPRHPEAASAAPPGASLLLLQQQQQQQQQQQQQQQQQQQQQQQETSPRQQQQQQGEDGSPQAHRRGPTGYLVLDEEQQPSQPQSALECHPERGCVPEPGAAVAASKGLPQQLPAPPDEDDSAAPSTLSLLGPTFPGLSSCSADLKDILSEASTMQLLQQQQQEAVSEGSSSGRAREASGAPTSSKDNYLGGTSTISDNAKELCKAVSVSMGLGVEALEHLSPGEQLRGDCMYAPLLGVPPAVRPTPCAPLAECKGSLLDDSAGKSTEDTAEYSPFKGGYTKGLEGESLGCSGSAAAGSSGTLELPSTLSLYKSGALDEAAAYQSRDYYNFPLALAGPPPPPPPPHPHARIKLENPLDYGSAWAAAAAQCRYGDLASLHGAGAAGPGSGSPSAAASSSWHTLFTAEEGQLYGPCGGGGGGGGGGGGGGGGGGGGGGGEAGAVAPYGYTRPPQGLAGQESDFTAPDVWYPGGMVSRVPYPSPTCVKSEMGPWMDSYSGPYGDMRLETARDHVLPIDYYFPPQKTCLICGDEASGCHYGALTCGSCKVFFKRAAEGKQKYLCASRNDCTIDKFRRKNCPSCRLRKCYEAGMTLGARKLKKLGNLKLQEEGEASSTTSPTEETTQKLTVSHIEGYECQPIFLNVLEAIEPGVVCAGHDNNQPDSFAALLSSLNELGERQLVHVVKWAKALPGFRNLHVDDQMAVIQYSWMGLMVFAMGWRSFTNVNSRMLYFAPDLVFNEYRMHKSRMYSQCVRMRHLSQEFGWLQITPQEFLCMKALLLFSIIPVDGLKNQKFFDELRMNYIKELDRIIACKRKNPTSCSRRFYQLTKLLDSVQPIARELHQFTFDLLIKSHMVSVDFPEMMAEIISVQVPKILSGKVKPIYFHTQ
metric_name: EC50 (nM)
Could you give me the number in nM? Just the number is fine.

Here's what some known entries look like.
CC(C)CN1CCOc2cc3[nH]c(=O)cc(C(F)(F)F)c3cc21; 3.2
O=c1cc(C(F)(F)F)c2cc3c(cc2[nH]1)OC[C@H]1CCCN31; 26

Which measured EC50 belongs to O=c1cc(C(F)(F)F)c2cc3c(cc2[nH]1)OCC1CCCCN31 (racemic) , tested on Androgen receptor (Homo sapiens, UniProt P10275)?
14

Which measured EC50 belongs to CCC1CN(CC(F)(F)F)c2cc3c(C(F)(F)F)cc(=O)[nH]c3cc2O1 (racemic) , tested on Androgen receptor (Homo sapiens, UniProt P10275)?
15

Which measured EC50 belongs to CC(C)[C@@H]1COc2cc3[nH]c(=O)cc(C(F)(F)F)c3cc2N1CC(F)(F)F , tested on Androgen receptor (Homo sapiens, UniProt P10275)?
5.9

Which measured EC50 belongs to CC1CN(C)c2cc3c(C(F)(F)F)cc(=O)[nH]c3cc2O1 (racemic) , tested on Androgen receptor (Homo sapiens, UniProt P10275)?
47

====

Molecular target: Glucocorticoid receptor (Homo sapiens, UniProt P04150)
Sequence (P04150 whole entry): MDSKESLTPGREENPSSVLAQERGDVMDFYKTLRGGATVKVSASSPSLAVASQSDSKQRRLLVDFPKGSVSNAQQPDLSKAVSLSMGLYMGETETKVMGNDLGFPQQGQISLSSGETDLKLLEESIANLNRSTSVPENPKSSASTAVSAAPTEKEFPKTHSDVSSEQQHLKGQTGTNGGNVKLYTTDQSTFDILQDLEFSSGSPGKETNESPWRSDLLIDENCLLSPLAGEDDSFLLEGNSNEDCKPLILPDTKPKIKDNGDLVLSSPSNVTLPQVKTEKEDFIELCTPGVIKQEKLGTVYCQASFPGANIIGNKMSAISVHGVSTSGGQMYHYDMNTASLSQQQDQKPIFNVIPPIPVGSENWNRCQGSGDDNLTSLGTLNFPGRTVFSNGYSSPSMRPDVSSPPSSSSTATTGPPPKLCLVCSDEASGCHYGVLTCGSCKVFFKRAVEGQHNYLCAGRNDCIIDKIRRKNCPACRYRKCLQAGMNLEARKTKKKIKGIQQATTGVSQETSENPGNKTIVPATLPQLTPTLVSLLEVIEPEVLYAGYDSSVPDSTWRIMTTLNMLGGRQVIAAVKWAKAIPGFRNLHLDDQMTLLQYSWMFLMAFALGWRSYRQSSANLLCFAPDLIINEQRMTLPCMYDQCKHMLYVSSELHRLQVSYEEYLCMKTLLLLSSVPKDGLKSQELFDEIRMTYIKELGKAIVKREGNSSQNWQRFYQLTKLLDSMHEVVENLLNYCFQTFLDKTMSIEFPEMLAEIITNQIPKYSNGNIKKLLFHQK
pKi: −log10 of the molar value.
metric_name: pKi

CCC1COc2cc3[nH]c(=O)cc(C(F)(F)F)c3cc2N1CC1CC1 (racemic); < 5.00

Which measured pKi belongs to O=c1cc(C(F)(F)F)c2cc3c(cc2[nH]1)OCC1CCCCN31 (racemic) , tested on Glucocorticoid receptor (Homo sapiens, UniProt P04150)?
< 5.00

Which measured pKi belongs to CC1CN(CC(F)(F)F)c2cc3c(C(F)(F)F)cc(=O)[nH]c3cc2O1 (racemic) , tested on Glucocorticoid receptor (Homo sapiens, UniProt P04150)?
< 5.00

====

Each entry below carries its recorded Ki.
Biological target: Progesterone receptor (Homo sapiens, UniProt P06401)
Sequence (P06401 whole entry): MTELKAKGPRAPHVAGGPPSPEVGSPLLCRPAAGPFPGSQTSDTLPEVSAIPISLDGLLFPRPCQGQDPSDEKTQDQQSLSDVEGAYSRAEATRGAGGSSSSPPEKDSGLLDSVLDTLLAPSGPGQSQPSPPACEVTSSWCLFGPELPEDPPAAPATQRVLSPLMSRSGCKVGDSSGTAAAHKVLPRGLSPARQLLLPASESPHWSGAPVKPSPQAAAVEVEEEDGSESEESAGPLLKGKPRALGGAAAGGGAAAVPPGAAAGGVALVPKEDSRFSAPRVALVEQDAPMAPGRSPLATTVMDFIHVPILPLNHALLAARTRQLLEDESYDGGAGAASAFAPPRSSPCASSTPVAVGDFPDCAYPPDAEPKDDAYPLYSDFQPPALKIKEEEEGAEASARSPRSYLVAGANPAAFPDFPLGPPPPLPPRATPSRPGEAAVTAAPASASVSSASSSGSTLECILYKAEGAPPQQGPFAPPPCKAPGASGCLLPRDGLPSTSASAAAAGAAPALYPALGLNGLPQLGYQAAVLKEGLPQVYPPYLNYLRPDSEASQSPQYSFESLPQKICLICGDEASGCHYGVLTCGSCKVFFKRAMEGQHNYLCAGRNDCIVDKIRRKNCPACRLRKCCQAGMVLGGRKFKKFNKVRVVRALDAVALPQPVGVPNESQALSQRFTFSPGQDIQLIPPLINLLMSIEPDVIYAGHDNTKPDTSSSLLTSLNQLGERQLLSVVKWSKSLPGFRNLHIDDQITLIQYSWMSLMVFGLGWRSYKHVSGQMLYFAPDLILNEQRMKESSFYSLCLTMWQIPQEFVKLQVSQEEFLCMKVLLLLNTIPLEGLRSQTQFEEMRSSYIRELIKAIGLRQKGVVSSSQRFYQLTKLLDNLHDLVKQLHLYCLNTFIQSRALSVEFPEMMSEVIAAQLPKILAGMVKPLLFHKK
Could you give me the number in µM? Just the number is fine.

CC1CN(CC(F)(F)F)c2cc3c(C(F)(F)F)cc(=O)[nH]c3cc2O1 (racemic); 7

// returns reported Ki for input CCC1COc2cc3[nH]c(=O)cc(C(F)(F)F)c3cc2N1CC1CC1 (racemic)
5.4

// returns reported Ki for input O=c1cc(C(F)(F)F)c2cc3c(cc2[nH]1)OCCN3CC(F)(F)F
5.3
